Provide the recorded pIC50 for the entries that follow.
- tested.target: human renal renin (Homo sapiens)
- Construct: human renal renin, free from acid proteolytic activity; from tissue
- run.description: Inhibition of human renal renin in vitro; angiotensin I formed measured by radioimmunoassay
- Type: biochemical
Counter-ions that a name gives are not always drawn.
Answers are plain numbers, as −log10 of the molar value.

Some entries whose results are on file:
{"compound": "COC(=O)C(N)CCCCC(=O)N[C@@H](Cc1ccc(OC)cc1)C(=O)N[C@@H](CC(C)C)C(=O)N[C@@H](CC1CCCCC1)[C@@H](O)[C@@H](O)CC(C)C (some centres unmarked)", "measured.attribute": "pIC50", "readout.number": 9.13}
{"compound": "CC(C)C[C@H](O)[C@H](O)[C@H](CC1CCCCC1)NC(=O)[C@H](Cc1c[nH]cn1)NC(=O)[C@H](Cc1ccccc1)NC(=O)c1cnccn1", "measured.attribute": "pIC50", "readout.number": 9.26}
{"compound": "CC(C)C[C@H](NC(=O)[C@H](Cc1ccccc1)NC(=O)OCCCOC(=O)CN)C(=O)N[C@@H](CC1CCCCC1)[C@@H](O)[C@@H](O)CC(C)C", "measured.attribute": "pIC50", "readout.number": 9.26}
{"compound": "CC(C)C[C@H](O)[C@H](O)[C@H](CC1CCCCC1)NC(=O)[C@H](Cc1c[nH]cn1)NC(=O)[C@H](Cc1ccccc1)NC(=O)[C@@H](C)N [Example 70, Diacetic Acid Salt]", "measured.attribute": "pIC50", "readout.number": 8.60}
{"compound": "CC(C)C[C@H](O)[C@H](O)[C@H](CC1CCCCC1)NC(=O)[C@H](Cc1c[nH]cn1)NC(=O)[C@@H](N)Cc1ccccc1", "measured.attribute": "pIC50", "readout.number": 8.00}

// each listed compound needs a value for pIC50
1. CNCC(=O)N[C@@H](Cc1ccccc1)C(=O)N[C@@H](Cc1c[nH]cn1)C(=O)N[C@@H](CC1CCCCC1)[C@@H](O)[C@@H](O)CC(C)C [Example 64, Diacetic Acid Salt]
2. COCCOCOCCN(C)C(=O)C[C@@H](Cc1ccccc1)C(=O)N[C@@H](Cc1c[nH]cn1)C(=O)N[C@@H](CC1CCCCC1)[C@@H](O)[C@@H](O)CC(C)C
3. C=CCOC(=O)N[C@@H](Cc1ccccc1)C(=O)N[C@@H](CC(C)C)C(=O)N[C@@H](CC1CCCCC1)[C@@H](O)[C@@H](O)CC(C)C
4. CC(C)C[C@H](O)[C@H](O)[C@H](CC1CCCCC1)NC(=O)[C@H](Cc1c[nH]cn1)NC(=O)[C@H](CC1CCCCC1)NC(=O)CC(C)(C)C
5. CC(C)C[C@H](O)[C@H](O)[C@H](CC1CCCCC1)NC(=O)[C@H](Cc1c[nH]cn1)NC(=O)[C@H](Cc1ccccc1)NC(=O)C(C)(C)N
6. CC(C)CC[C@H](O)[C@H](O)[C@H](CC1CCCCC1)NC(=O)[C@H](Cc1c[nH]cn1)NC(=O)[C@H](Cc1ccccc1)NC(=O)CC(C)(C)C

1. 8.52
2. 9.62
3. 9.40
4. 8.70
5. 9.40
6. 8.30

----------
- tested.target: human renal renin (Homo sapiens, UniProt P00797)
- Construct: human renal renin, free from acid proteolytic activity; from tissue
- Sequence (P00797 67-406): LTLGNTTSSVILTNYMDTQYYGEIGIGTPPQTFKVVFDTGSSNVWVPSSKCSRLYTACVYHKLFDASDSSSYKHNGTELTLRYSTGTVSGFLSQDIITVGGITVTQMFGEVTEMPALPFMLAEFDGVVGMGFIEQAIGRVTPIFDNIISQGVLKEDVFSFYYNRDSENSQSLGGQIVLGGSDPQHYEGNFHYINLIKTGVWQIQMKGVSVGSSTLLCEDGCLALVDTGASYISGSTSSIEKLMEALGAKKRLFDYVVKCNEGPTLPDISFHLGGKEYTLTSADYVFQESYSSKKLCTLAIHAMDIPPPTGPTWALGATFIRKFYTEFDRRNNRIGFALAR
- run.description: Inhibition of human renal renin in vitro; angiotensin I formed measured by radioimmunoassay
- Assay type: biochemical
pIC50: −log10 of the molar value. Counter-ions that a name gives are not always drawn.
// label = true if pIC50 is not less than 9, otherwise false

Would you please look over these solved cases?
{"compound": "CC(C)C[C@H](NC(=O)[C@H](Cc1ccccc1)NCCC#N)C(=O)N[C@@H](CC1CCCCC1)[C@@H](O)[C@@H](O)CC(C)C", "tested.target": "human renal renin (Homo sapiens, UniProt P00797)", "qualitative.label": "false"}
{"compound": "COc1ccc(C[C@@H](C(=O)N[C@@H](CC(C)C)C(=O)N[C@@H](CC2CCCCC2)[C@@H](O)[C@@H](O)CC(C)C)N(C)C)cc1", "tested.target": "human renal renin (Homo sapiens, UniProt P00797)", "qualitative.label": "false"}
{"compound": "CC(C)C[C@H](O)[C@H](O)[C@H](CC1CCCCC1)NC(=O)[C@H](Cc1c[nH]cn1)NC(=O)C(CC(=O)N1CCOCC1)Oc1ccccc1 (single isomer, unassigned)", "tested.target": "human renal renin (Homo sapiens, UniProt P00797)", "qualitative.label": "false"}
{"compound": "CC(C)C[C@H](O)[C@H](O)[C@H](CC1CCCCC1)NC(=O)[C@H](Cc1c[nH]cn1)NC(=O)C(NC(=O)N1CCOCC1)C(C)(C)c1ccccc1 (some centres unmarked)", "tested.target": "human renal renin (Homo sapiens, UniProt P00797)", "qualitative.label": "false"}
{"compound": "CC(C)C[C@H](O)[C@H](O)[C@H](CC1CCCCC1)NC(=O)[C@H](Cc1c[nH]cn1)NC(=O)[C@H](Cc1ccccc1)NC(=O)CC(C)(C)N [Example 75, Diacetic Acid Salt]", "tested.target": "human renal renin (Homo sapiens, UniProt P00797)", "qualitative.label": "true"}

Hello, I need to know if CC(C)C[C@H](NC(=O)[C@@H](N)Cc1ccccc1)C(=O)N[C@@H](CC1CCCCC1)[C@@H](O)[C@@H](O)CC(C)C has measured pIC50 not below 9. Thanks!
false

Item COc1ccc(C[C@H](NC(=O)CCCCC(N)C(=O)O)C(=O)N[C@@H](CC(C)C)C(=O)N[C@@H](CC2CCCCC2)[C@@H](O)[C@@H](O)CC(C)C)cc1 (some centres unmarked) with pIC50 of 9 or above?
false

Please check the record CC(C)C[C@H](O)[C@H](O)[C@H](CC1CCCCC1)NC(=O)[C@H](Cc1c[nH]cn1)NC(=O)[C@H](Cc1ccccc1)NC(=O)[C@@H]1CCCN1C(=O)OCc1ccccc1 and state if its pIC50 is at or above 9.
true

Given CCOC(=O)[C@H](C)N[C@@H](Cc1ccccc1)C(=O)N[C@@H](Cc1c[nH]cn1)C(=O)N[C@@H](CC1CCCCC1)[C@@H](O)[C@@H](O)CC(C)C [Example 185B] , state whether its pIC50 is at least 9.
true
